Property measured: melting point

| Structure smiles string | Value measured |
| --- | --- |
| COc1cc2c3c(cccc3c1CNC(C)=O)C(=O)N(O)C2=O | 237 to 239 °C |
| ClCCOc1cccc2[nH]ccc12 | 60 °C |
| COc1cc(-c2c(Cl)c(CCl)nc3sc4c(c23)CCN(Cc2ccccc2)C4)ccc1OC(C)C | 173 to 174 °C |
| CN1CCN(Cc2c(O)c(O)c(O)c3c(=O)cc(-c4ccccc4)oc23)CC1 | 280 to 282 °C |
| C#CCSc1cc(-c2nn(C)c(SC)c2Cl)c(F)cc1Cl | 93 to 96 °C |
| COc1ccc(CCN2CCC(NC(C)=O)CC2)cc1OC | 152 to 154 °C |
| c1ccc(N2CCN(Cc3n[nH]c4ccccc34)CC2)cc1 | 196 to 197 °C |
| CC(=O)C1=C(O)C(=C(C)Nc2ccc(OC(=O)NCc3ccccc3)cc2)C(=O)OC1=O | 195 to 197 °C |
| c1ccc(CN2CCC(Nc3cccnc3)CC2)cc1 | 131 to 133 °C |
| COc1ccc(O)c(NS(C)(=O)=O)c1 | 135 to 136 °C |
| O=Cc1ccc2nccnc2c1 | 134 °C |

---

| Molecule | melting point |
| --- | --- |
| COC(=O)Cc1ccc(-c2ccc(O)cc2)c(F)c1 | 115 to 118 °C |
| OCC1CC(O)C(n2c(Br)nc3cc(Cl)c(Cl)cc32)C1 (stereo not given) | 218 to 220 °C |
| COc1cc2c(=O)cc[nH]c2cc1OCc1ccccc1 | 235 to 236 °C |
| Cc1ccc(S(=O)(=O)NC(CSCC(=O)O)C(=O)O)cc1 (stereo not given) | 152 °C |
| COc1nc2ccc([N+](=O)[O-])cc2nc1Cl | 155 to 158 °C |
| O=C1CC(c2ccccc2)CC(=O)C1C(=O)c1ccc(Cl)cc1[N+](=O)[O-] (stereo not given) | 144 to 145 °C |
| Cc1c(F)cc(C(=O)NCCC(C)C)cc1-c1ccc(C(=O)NCC(C)(C)C)cc1C(=O)Nc1nccs1 | 159 to 164 °C |
| CCOC(=O)C1=C(C)NC(COC(C)=O)=C(C(=O)OCC)C1c1cccc([N+](=O)[O-])c1 (stereo not given) | 133 to 135 °C |
| CN(C)C=C(C#N)C(=O)Nc1ccccc1 | 162 to 164 °C |
| Cc1ccc2oc(=O)c(C(=O)O)c(-c3ccccc3)c2c1 | 129 to 131 °C |

---

| Molecule | melting point |
| --- | --- |
| Nc1cccc2c1N1CCN=C1S2 | 229 °C |
| Cc1cc(C(=O)N(C)C)c(O)c([N+](=O)[O-])c1 | 160 to 162 °C |
| O=C(CSc1ccc(C(F)(F)F)cc1C(=O)O)c1ccccc1 | 128 to 130 °C |
| CC(O)(C#Cc1ccc(C(=O)c2ccccn2)cc1)C(F)(F)F (stereo unspecified) | 116 to 118 °C |
| O=C(O)CCc1cn(Cc2ccc(OCc3ccc4ccccc4n3)nc2)nc1-c1ccccc1 | 166 to 167 °C |
| CC(=O)C(=[N+]=[N-])C(=O)c1ccccn1 | 69 to 74 °C |
| CN(C(N)=S)c1ccc(-c2ncn(-c3ccc(OC(F)(F)F)cc3)n2)cc1 | 142 to 152 °C |
| Cc1nc(CCO)c2c(n1)N(N)C(=O)C(C)(C)O2 | 168 to 170 °C |
| CC(=O)NC1(c2ccc(C(C)O)cc2)CC1 (stereo unspecified) | 114 to 116 °C |
| CC(C)(CO)C(O)C(=O)NCc1cccnc1 (stereo unspecified) | 120 to 122 °C |
| CCC1CC2=CC(=O)CCC2C2CCC3(C)C(O)CCC3C12 (stereo unspecified) | 142 to 144 °C |

---

Property measured: melting point

| Compound | Property measured | Value measured |
| --- | --- | --- |
| CCCCOc1ccc(CC(=O)N[C@@H](C(=O)OCc2ccccc2)[C@@H](C)O)cc1 | melting point | 80 to 83 °C |
| COCCn1cc2c(C3C(=O)Nc4ccc(Br)cc43)nc(Cl)nc2n1 (stereo not given) | melting point | > 300 °C |
| CCc1c(C(=O)NN2CCCCC2)nc(-c2ccccc2Cl)n1-c1ccc(Cl)cn1 | melting point | 217 to 219 °C |
| COc1ccc(-c2csc(Nc3ncccc3C)n2)cc1OC | melting point | 264 to 266 °C |
| CC(=O)c1cnc(N)c(Cl)c1 | melting point | 188 °C |

---

Reported melting point values for a set of compounds
Property measured: melting point

| Compound | Value measured |
| --- | --- |
| COC(=O)C(Cc1ccccc1)NC(=O)C(N)(CC(=O)O)C(=O)N1CCCCC1 (stereo not given) | 225 to 227 °C |
| COC(=O)CCCCCNC(=O)/C=C/C=C/c1ccccc1 | 125 to 127 °C |
| Cc1ccc(C(=C/C=C/C(=O)NCCCCc2cccnc2)c2ccc(C)cc2)cc1 | 144 to 146 °C |
| COc1cccc(C(=O)c2sc3cc(OC)ccc3c2-c2ccccc2)c1 | 101 to 103 °C |
| CCC(CC)C(NS(=O)(=O)c1ccc(Cl)s1)c1ccnn1S(=O)(=O)c1ccc(C)cc1 (stereo not given) | 146 to 148 °C |

---

| Molecule | melting point |
| --- | --- |
| CCOC(=O)CCc1oc(-n2ccnc2C)nc1-c1ccc(Cl)cc1 | 70 to 71 °C |
| O=C(N[C@@H](CSC(=O)c1ccccc1)C(=O)N[C@@H](Cc1c[nH]c2ccccc12)C(=O)O)c1ccccc1 | 175 to 178 °C |
| O=[N+]([O-])c1ccc2[nH]cc(C3=CCNCC3F)c2c1 (centres undefined) | 205 to 207 °C |
| CC(C)Oc1ccc(-n2c(CC(=O)O)c(C(=O)O)c3cc(Oc4ncccc4C(=O)O)ccc32)cc1 | 212 to 214 °C |
| c1ccc(-c2nnc(Nc3ccc4c(c3)ncn4-c3ccccc3)c3ccccc23)cc1 | 227 to 229 °C |
| CCCN[C@@H](Cc1ccc(OCCNC(=O)c2ccc(-c3ccccn3)cc2)cc1)C(=O)O | 242 to 244 °C |
| CCOC(=O)c1cn(C2CC2)c2c(F)c(-c3cc(C)nc(C)c3)c(F)cc2c1=O | 186 to 187 °C |
| Cc1cccnc1OC(=O)Oc1ncccc1C | 110 to 112 °C |
| N#Cc1ccc(N2C(=O)N(CCCC(=O)O)C3(CCSCC3)C2=O)cc1C(F)(F)F | 197 to 198 °C |

---

Property measured: melting point

| Compound | Property measured | Value measured |
| --- | --- | --- |
| C/C(=C\c1ccc(C(=O)O)cc1)c1ccc2c(c1)C(C)(C)CCO2 | melting point | 179 to 181 °C |
| CSCc1nc(C)cc(O)n1 | melting point | 138 °C |
| Cc1cc(C#N)c(S(C)(=O)=O)cc1C(=O)O | melting point | 248 to 249 °C |
| Cc1cccc2c1N(CC(=O)N1CC3CCC(CC3)C1)C(=O)C(NC(=O)Nc1cccc(Cl)c1)N=C2c1ccccc1F (stereo not given) | melting point | > 250 °C |
| CCOC(=O)c1c2ccc(CC(=O)NOCC(=O)N3CCCC3)ccc-2c(C(=O)OCC)c1N | melting point | 168 to 170 °C |

---

Known melting point of a selection of molecules

| Molecule | melting point |
| --- | --- |
| O=C(O)c1cn(-c2ccc(F)cc2)c2c(F)c(N3CCCC3)c(F)cc2c1=O | 282 to 284 °C |
| CCOC(=O)Nc1ccc(C(=O)Nc2ccc3ccc(OC)nc3n2)cc1 | 200 °C |
| CC(C)C(C)(C)C(O)C(Cc1ccc(Cl)cc1)n1cncn1 (centres undefined) | 106 °C |
| COc1ccc2c(C(=O)N3CCC[C@H]3C(=O)O)cc3cc4c(cc3c2c1)OCO4 | 207 to 208 °C |
| Cc1cc(-c2nc3cccnn3c2-c2ccnc(NC(=O)NCC(F)(F)F)c2)ccc1F | 229 to 230 °C |
| CC(=NNc1ccc(-c2ccc(=O)n(C)n2)cc1)c1ccc(O)cc1O | 263 to 268 °C |
| CCCCCCCCCCCCCCCCCCOCC(COP(=O)([O-])OCC[N+](C)(C)C)Oc1ccon1 (racemic) | 115 to 125 °C |
| COC(=O)c1[nH]c(=O)n(C(=O)NCCCN2CCC(C(=O)OC)(c3ccccc3)CC2)c1-c1ccc(F)c(F)c1 | 134 to 136 °C |
| COC(=O)NC1=NC(c2ccc(I)cc2)CN1 (centres undefined) | 229 to 230 °C |
| Cc1ccc(N2C(=O)c3cc([N+](=O)[O-])cc([N+](=O)[O-])c3C2=O)cc1 | 182 to 183 °C |
| CCc1c(-c2ccc(O)cc2)c2c(C(=O)N(C)CCN(C)C)cc3cc(OC)cc1n32 | 190 to 200 °C |
| CC(C)(C)OC(=O)C1C(C#CC(=O)O)C1(C)C (centres undefined) | 144 °C |
| COc1ccc(Cn2c(=O)c3ccc4ccccc4c3c3c4ccccc4ccc32)cc1 | 229 °C |
| COc1ccc(N2CCN(c3c(C)c(C)c4c(c3C)CC(C)(CN)O4)CC2)cc1 (centres undefined) | 134 to 137 °C |
| C[Si](C)(C)/C=C/c1c(N)nc(-c2ccc(Cl)c(F)c2F)nc1C(=O)O | 155 to 157 °C |
| CCCN1CC(c2cccc(Br)c2)=C(c2ccc(S(N)(=O)=O)cc2)C1=O | 162 to 163 °C |
| CS(=O)(=O)C(=C1CN(C(c2ccccc2)c2ccccc2)C1)c1ccc(F)cc1 | 186 °C |
| CCOC(=O)CCC12CCC(=O)N1C(=O)CC2 | 104 to 105 °C |
| COC(=O)c1cccc(C)c1NS(=O)(=O)c1nc2nc(C)cc(C)n2n1 | 181 to 182 °C |

Provenance of the data: a melting point compilation (Tetko et al.; mined from patent text by program, amines drawn as free bases though some values may be those of a salt)
